The measurements presented in this section are drawn from paper PMC5844530.

Assay: in vivo
Details: cynomolgus monkey, po, 300 mg/kg
measurement name: AUC (µM·h)
Give just the numeric value; µM·h need not be written.

State the recorded AUC for this entry: CC(C)(CO)[C@@H](O)C(=O)NCCC(=O)O [PA, pantothenate]
3.35

====

Experiment: Pharmacokinetics in whole blood, Sprague-Dawley rats
Settings: male, Sprague-Dawley, rat, whole blood, po, 700 mg/kg, Whole Blood Conc. of compound 2, Sprague-Dawley rats, single 700 mg/kg RE-024-02 PO, time 2, LLOQ 3 ng/mL
measurement name: concentration at 2 h (ng/mL)
Give just the numeric value; ng/mL need not be written.

State the recorded concentration at 2 h for this entry: COC(=O)CCNC(=O)[C@@H]1OP(=O)(O)OCC1(C)C [Compound 2]
105
